TARGET_OF_ASSAY: Glypican-3 (GPC3) (UniProt P51654;P51654 P51654:25-358,P51654:359-554)
METHOD_NOTES: assay and GPC3 source not stated; fusion does not affect GPC3 binding
TEST_CONDITIONS: tags: recombinant GPC3 used for SELEX; source inferred for kinetic assay
QUANTITY: IC50 (nM)

BINDER | MEASURED_NUMBER
GRX51 (CpG7909-GRX49 fusion) (mixed, PS DNA CpG7909 portion, 2'-OMe aptamer portion) mixed: TCGTCGTTTTGTCGTTTTGTCGTTCGUCAUCGGGUUGCUACCCAAGGCCAGGAGGCGAUGACG | 32.7
